Test system: A2780
assay comment: Antiproliferative activity against human A2780 cells assessed as cell growth inhibition measured after 3 days by cell viability assay
Type: functional, cell-based
details: A2780, 72 h
hey, just use true if measured IC50 is less than 400 nM, otherwise false

[
  {
    "compound": "C=C1CC2(OC1=O)C(=O)N(CCCN1C(=O)C3(CC(=C)C(=O)O3)c3ccccc31)c1ccccc12 (stereo unspecified)",
    "assigned class": "true"
  },
  {
    "compound": "C=C1CC2(OC1=O)C(=O)N(CCCCCCCCN1C(=O)C3(CC(=C)C(=O)O3)c3ccccc31)c1ccccc12 (stereo unspecified)",
    "assigned class": "false"
  },
  {
    "compound": "C=C1CC2(OC1=O)C(=O)N(CCCCCCCCCCN1C(=O)C3(CC(=C)C(=O)O3)c3ccccc31)c1ccccc12 (stereo unspecified)",
    "assigned class": "false"
  },
  {
    "compound": "CC1CC2(OC1=O)C(=O)N(CCCCCCCN1C(=O)C3(CC(C)C(=O)O3)c3ccccc31)c1ccccc12 (stereo unspecified)",
    "assigned class": "false"
  }
]

----------
Test system: A2780
assay comment: Antiproliferative activity against human A2780 cells assessed as cell growth inhibition measured after 3 days by cell viability assay
Format: functional, cell-based
details: A2780, 72 h
pIC50: −log10 of the molar value.
Here, each record is paired with measured pIC50 data.

[
  {
    "molecule": "C=C1CC2(OC1=O)C(=O)N(Cc1ccc(CN3C(=O)C4(CC(=C)C(=O)O4)c4ccccc43)cc1)c1ccccc12 (stereo not drawn)",
    "pIC50": 6.51
  },
  {
    "molecule": "C=C1CC2(OC1=O)C(=O)N(CCCCCCCCCN1C(=O)C3(CC(=C)C(=O)O3)c3ccccc31)c1ccccc12 (stereo not drawn)",
    "pIC50": 5.97
  },
  {
    "molecule": "C=C1CC2(OC1=O)C(=O)N(CCCCCCN1C(=O)C3(CC(=C)C(=O)O3)c3ccccc31)c1ccccc12 (stereo not drawn)",
    "pIC50": 6.39
  },
  {
    "molecule": "C=C1CC2(OC1=O)C(=O)N(CCCCCCCCCCCN1C(=O)C3(CC(=C)C(=O)O3)c3ccccc31)c1ccccc12 (stereo not drawn)",
    "pIC50": 6.11
  },
  {
    "molecule": "C=C1CC2(OC1=O)C(=O)N(CCCCCCCCCCCCN1C(=O)C3(CC(=C)C(=O)O3)c3ccccc31)c1ccccc12 (stereo not drawn)",
    "pIC50": 6.30
  },
  {
    "molecule": "C=C1CC2(OC1=O)C(=O)N(CCCCCN1C(=O)C3(CC(=C)C(=O)O3)c3ccccc31)c1ccccc12 (stereo not drawn)",
    "pIC50": 6.57
  },
  {
    "molecule": "C=C1CC2(OC1=O)C(=O)N(CCCCN1C(=O)C3(CC(=C)C(=O)O3)c3ccccc31)c1ccccc12 (stereo not drawn)",
    "pIC50": 6.44
  },
  {
    "molecule": "C=C1CC2(OC1=O)C(=O)Nc1ccccc12 (stereo not drawn)",
    "pIC50": 6.00
  }
]
